target: UniProt:Q86W56; test: PARG TFMU assay (4-(trifluoromethyl)umbelliferone substrate); format: biochemical; settings: PARG 250 pM or 2 nM, 10-point dose response
testReadout: IC50

So what does the record say about IC50 for CC1OCC1(C)NS(=O)(=O)c1cc(Cl)c2cnn(-c3nnc(C(F)F)s3)c2c1 (stereo not shown) [Example 71] ?
50 to 500 nM

So what does the record say about IC50 for C=Cc1nnc(-n2ncc3c(N4CCN(C(=O)C(C)C)CC4)cc(S(=O)(=O)NC4(C)COC4)cc32)s1 [Example 80] ?
< 50 nM

So what does the record say about IC50 for CC(C)C(=O)N1CCN(c2cc(S(=O)(=O)NC3(C#N)COC3C)cc3c2cnn3-c2nnc(C(F)F)s2)CC1 (stereo not shown) [Example 32] ?
50 to 500 nM

So what does the record say about IC50 for CN1CCN(c2cc(S(=O)(=O)NC3(C)COC3)cc3c2cnn3-c2nnc(C(F)F)s2)CC1 [Example 48] ?
50 to 500 nM

----------
Would you mind telling me the reported IC50 of each entry?
target: PARG (Homo sapiens (Human)); experiment: PARG target engagement cellular assay (PAR polymer immunostaining after cisplatin); format: cell-based; details: HCC1806 cells treated with cisplatin, then compound titration for 1 h; PAR polymer antibody readout

So what does the record say about IC50 for CC[C@H]1C[C@@]1(C)NS(=O)(=O)c1ccc2c(c1)c(=O)n(CC)c(=O)n2CC (single isomer, unassigned) [Example 13D] ?
> 100 µM

So what does the record say about IC50 for Cc1ncc(Cn2c(=O)c3cc(S(=O)(=O)NC4(C)COC4)ccc3n(Cc3sc(C)nc3C)c2=O)s1 ?
10 to 100 µM

So what does the record say about IC50 for CNC(=O)/C=C/Cn1c(=O)[nH]c2ccc(S(=O)(=O)NC3(C)COC3)cc2c1=O ?
> 100 µM

So what does the record say about IC50 for CCn1c(=O)c2cc(S(=O)(=O)N[C@@]3(C)C[C@H]3CC#N)ccc2n(CC)c1=O (racemic) ?
> 100 µM

So what does the record say about IC50 for CCn1c(=O)c2cc(S(=O)(=O)NC3(C#N)COC3)ccc2n(CC)c1=O ?
10 to 100 µM

So what does the record say about IC50 for CCn1c(=O)c2cc(S(=O)(=O)N[C@@]3(C)C[C@H]3CCO)ccc2n(CC)c1=O (single isomer, unassigned) [Example 15A] ?
> 100 µM

So what does the record say about IC50 for CCOC(=O)/C=C/Cn1c(=O)[nH]c2ccc(S(=O)(=O)NC34CC(C3)C4)cc2c1=O ?
> 100 µM

So what does the record say about IC50 for CCn1c(=O)c2cc(S(=O)(=O)NC3(C)CSC3)ccc2n(CC)c1=O ?
> 100 µM

So what does the record say about IC50 for CCn1c(=O)c2cc(S(=O)(=O)NC3(CF)COC3)ccc2n(CC)c1=O ?
10 to 100 µM

So what does the record say about IC50 for CC(C)C(=O)N1CCN(c2cc(S(=O)(=O)NC3(C)COC3)cc3c2cnn3-c2nnc(C(F)F)s2)CC1 ?
< 10 µM

So what does the record say about IC50 for CCn1c(=O)c2cc(S(=O)(=O)NC3(C)COC3)ccc2n(CC)c1=O ?
10 to 100 µM

So what does the record say about IC50 for COC(=O)/C=C/Cn1c(=O)c2cc(S(=O)(=O)NC3(C)COC3)ccc2n(CC2COC2)c1=O ?
< 10 µM

So what does the record say about IC50 for CCn1c(=O)c2cc(S(=O)(=O)NC3(C(F)F)COC3)ccc2n(CC)c1=O ?
> 100 µM

So what does the record say about IC50 for CCn1c(=O)c2cc(S(=O)(=O)NC3(C)CCOC3)ccc2n(CC)c1=O (stereo not shown) ?
> 100 µM

So what does the record say about IC50 for O=C(O)/C=C/Cn1c(=O)[nH]c2ccc(S(=O)(=O)NC34CC(C3)C4)cc2c1=O ?
> 100 µM

So what does the record say about IC50 for CCn1c(=O)c2cc(S(=O)(=O)N[C@@]3(C)CO[C@H]3C)ccc2n(CC)c1=O (single isomer, unassigned) [Example 17A] ?
10 to 100 µM

----------
Would you mind telling me the reported IC50 of each entry?
biological target: PARG (Homo sapiens (Human), UniProt Q86W56); test: PARG TFMU assay (4-(trifluoromethyl)umbelliferone substrate); format: biochemical; conditions: PARG 250 pM or 2 nM, 10-point dose response
Sequence (Q86W56 whole entry): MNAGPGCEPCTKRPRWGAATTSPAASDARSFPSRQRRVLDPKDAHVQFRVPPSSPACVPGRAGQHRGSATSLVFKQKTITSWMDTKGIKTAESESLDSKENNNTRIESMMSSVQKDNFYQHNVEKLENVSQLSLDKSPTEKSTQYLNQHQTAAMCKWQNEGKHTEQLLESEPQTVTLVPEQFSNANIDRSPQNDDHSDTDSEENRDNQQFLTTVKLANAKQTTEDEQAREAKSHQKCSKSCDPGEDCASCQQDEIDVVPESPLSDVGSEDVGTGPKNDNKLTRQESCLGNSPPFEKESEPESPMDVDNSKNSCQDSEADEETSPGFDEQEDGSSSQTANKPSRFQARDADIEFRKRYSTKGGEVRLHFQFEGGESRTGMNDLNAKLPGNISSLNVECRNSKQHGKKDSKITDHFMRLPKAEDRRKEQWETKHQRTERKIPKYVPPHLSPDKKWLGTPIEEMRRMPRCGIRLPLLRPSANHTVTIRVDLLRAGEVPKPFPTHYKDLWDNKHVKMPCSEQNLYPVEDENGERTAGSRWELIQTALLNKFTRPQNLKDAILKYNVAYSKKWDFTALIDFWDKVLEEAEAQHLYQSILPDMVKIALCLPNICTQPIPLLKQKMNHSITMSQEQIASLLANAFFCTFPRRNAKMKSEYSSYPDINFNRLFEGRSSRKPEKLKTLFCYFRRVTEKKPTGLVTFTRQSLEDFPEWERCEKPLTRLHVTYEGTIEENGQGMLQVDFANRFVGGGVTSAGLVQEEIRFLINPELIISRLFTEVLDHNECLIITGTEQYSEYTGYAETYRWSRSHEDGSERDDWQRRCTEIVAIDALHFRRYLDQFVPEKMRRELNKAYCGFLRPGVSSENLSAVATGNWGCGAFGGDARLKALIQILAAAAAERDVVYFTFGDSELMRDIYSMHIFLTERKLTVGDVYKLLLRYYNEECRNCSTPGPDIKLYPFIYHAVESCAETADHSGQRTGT

So what does the record say about IC50 for CCn1c(=O)c2cc(S(=O)(=O)NC3(C)COC3)ccc2n(CC)c1=O ?
50 to 500 nM

So what does the record say about IC50 for C=Cc1nnc(-n2ncc3c(N4CCN(C(=O)C(C)C)CC4)cc(S(=O)(=O)NC4(CF)COC4)cc32)s1 ?
< 50 nM

So what does the record say about IC50 for COC(=O)/C=C/Cn1c(=O)[nH]c2ccc(S(=O)(=O)NC3(C)COC3)cc2c1=O ?
500 to 5000 nM

So what does the record say about IC50 for Cc1ncc(Cn2c(=O)[nH]c3ccc(S(=O)(=O)NC4(CF)COC4)cc3c2=O)s1 [Example 28A] ?
50 to 500 nM

So what does the record say about IC50 for NC(=O)/C=C/Cn1c(=O)[nH]c2ccc(S(=O)(=O)NC34CC(C3)C4)cc2c1=O ?
500 to 5000 nM

So what does the record say about IC50 for CN(CC(F)F)C(=O)N1CCN(c2cc(S(=O)(=O)NC3(C)COC3)cc3c2cnn3-c2nnc(C(F)F)s2)CC1 ?
< 50 nM

So what does the record say about IC50 for CN(CC(F)F)C(=O)N1CCN(c2cc(S(=O)(=O)NC3(C#N)COC3)cc3c2cnn3-c2nnc(C(F)F)s2)CC1 ?
< 50 nM

So what does the record say about IC50 for Cc1ncc(Cn2c(=O)[nH]c3ccc(S(=O)(=O)NC4(C#N)COC4)cc3c2=O)s1 [Example 25A] ?
50 to 500 nM

So what does the record say about IC50 for COC(=O)/C=C/CCn1c(=O)[nH]c2ccc(S(=O)(=O)NC3(C)COC3)cc2c1=O ?
500 to 5000 nM

So what does the record say about IC50 for CCn1c(=O)c2cc(S(=O)(=O)NC3(C#N)COC3)ccc2n(CC)c1=O ?
500 to 5000 nM

So what does the record say about IC50 for C=C[C@@H]1C[C@@]1(C#N)NS(=O)(=O)c1ccc2c(c1)c(=O)n(CC)c(=O)n2CC (single isomer, unassigned) ?
≥ 5000 nM

So what does the record say about IC50 for CCOC(=O)/C=C/Cn1c(=O)[nH]c2ccc(S(=O)(=O)NC34CC(C3)C4)cc2c1=O ?
≥ 5000 nM

So what does the record say about IC50 for CC(C)C(=O)N1CCN(c2cc(S(=O)(=O)NC3(C)COC3)cc3c2cnn3-c2nnc(CS(C)(=O)=O)s2)CC1 ?
< 50 nM

So what does the record say about IC50 for CC(C)C(=O)N1CCN(c2cc(S(=O)(=O)NC3(C)COC3)cc3c2cnn3-c2nnc(Br)s2)CC1 ?
< 50 nM

So what does the record say about IC50 for CCn1c(=O)c2cc(S(=O)(=O)NC3(CF)COC3)ccc2n(CC)c1=O ?
50 to 500 nM

----------
molecular target: PARG (Homo sapiens (Human)); experiment: PARG target engagement cellular assay (PAR polymer immunostaining after cisplatin); assay type: cell-based; conditions: HCC1806 cells treated with cisplatin, then compound titration for 1 h; PAR polymer antibody readout
Would you mind telling me the reported IC50 of each entry?

So what does the record say about IC50 for NC(=O)/C=C/Cn1c(=O)[nH]c2ccc(S(=O)(=O)NC34CC(C3)C4)cc2c1=O ?
> 100 µM

So what does the record say about IC50 for CCn1c(=O)c2cc(S(=O)(=O)NC3(C)CCC3)ccc2n(CC)c1=O ?
> 100 µM

So what does the record say about IC50 for COC(=O)/C=C/CCn1c(=O)[nH]c2ccc(S(=O)(=O)NC3(C)COC3)cc2c1=O ?
> 100 µM

So what does the record say about IC50 for COC(=O)/C=C/Cn1c(=O)[nH]c2ccc(S(=O)(=O)NC3(C)COC3)cc2c1=O ?
10 to 100 µM

----------
molecular target: UniProtKB Q86W56; test: PARG TFMU assay (4-(trifluoromethyl)umbelliferone substrate); format: biochemical; settings: PARG 250 pM or 2 nM, 10-point dose response
testReadout: IC50

So what does the record say about IC50 for N#CC1(NS(=O)(=O)c2cc(N3CCN(C(=O)C4CCCC4)CC3)c3cnn(-c4nnc(C(F)F)s4)c3c2)COC1 [Example 40] ?
< 50 nM

So what does the record say about IC50 for O=C(C1CCCC1)N1CCN(c2cc(S(=O)(=O)NC3(CF)COC3)cc3c2cnn3-c2nnc(C(F)F)s2)CC1 [Example 34] ?
< 50 nM

So what does the record say about IC50 for CC(C)C(=O)N1CCN(c2cc(S(=O)(=O)NC3(C)COC3)cc3c2cnn3-c2nnc(C(F)F)s2)CC1 [Example 6] ?
< 50 nM

So what does the record say about IC50 for CCn1c(=O)c2cc(S(=O)(=O)N[C@@]3(C)C[C@H]3CC#N)ccc2n(CC)c1=O (racemic) [Example 16] ?
≥ 5000 nM
